# TEST_DETAILS: Cytotoxicity (IC50) of components separated from Kumazasa extract
# ASSAY_SETUP: human, MRC-5 human fetal lung fibroblast cells
Examples of molecules with documented IC50 follow.
Respond with the bare value in µg/mL.

Completed entries (count: 3):
O=C(O)/C=C/c1ccc(O)cc1 [p-coumaric acid, reference compound]: 187
COc1cc(C=O)ccc1O [Vanillin, vanillin]: 215
COc1cc(-c2cc(=O)c3c(O)cc(O)cc3o2)cc(OC)c1O [Tricin, 5,7,4′-trihydroxy-3′,5′-dimethoxyflavone]: 2050

Next, consider the following molecule.
IN: Respond only with IC50 recorded for Oc1cccnc1 [3-hydroxy pyridine, 3-hydroxypyridine]
OUT: 263
